- System: HEK-293T
- assay: Multiplex assay against HEK293T
- Format: toxicity, cell-based
- run conditions: human, 48 h, 1 µM, compound concentration 1 uM, replicate 2
measure: Population Mitotic Cells (%)
Value expressed in %; do not type the unit.

compound	readout value
COc1cc(Nc2nccc(-c3cnn4nc(OC)ccc34)n2)cc(C(F)(F)F)c1	95
COc1cc2ncn(-c3cc(OCc4ccccc4C(F)(F)F)c(C(N)=O)s3)c2cc1OC [GW843682X]	44

For the next question, use this compound.
*Q* Which measured Population Mitotic Cells (%) value corresponds to O=C(c1cc2c(cc1F)OC(c1ccc(F)cc1)(c1ccc(Cl)cc1Cl)O2)N1CCOCC1 (stereo not drawn) ?
*A* 77
